The origin of these recorded values is patent EP3620472A1.

target: endogenous human PAI-1 (human, UniProt P05121 24-402); assay: cell-based or functional assay
Sequence (P05121 24-402 limits assumed, form in doubt): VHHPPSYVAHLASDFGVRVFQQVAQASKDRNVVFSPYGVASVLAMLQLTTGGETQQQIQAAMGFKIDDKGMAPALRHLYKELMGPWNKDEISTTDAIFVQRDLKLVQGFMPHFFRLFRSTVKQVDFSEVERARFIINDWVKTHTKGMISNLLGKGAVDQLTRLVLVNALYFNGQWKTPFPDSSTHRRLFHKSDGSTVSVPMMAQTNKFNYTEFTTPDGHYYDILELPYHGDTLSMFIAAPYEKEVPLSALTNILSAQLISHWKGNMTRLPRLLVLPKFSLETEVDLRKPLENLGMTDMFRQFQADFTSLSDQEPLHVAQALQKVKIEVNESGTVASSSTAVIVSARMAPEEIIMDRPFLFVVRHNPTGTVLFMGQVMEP
ENDPOINT_LABEL: uPA-PAI-1 complex ELISA Y50% (%)
Answers are plain numbers, in %.

INSERT INTO measurements (binder, unit_name, readout_number) VALUES
  ('A44-hv12 (antibody, V domains shown) VH: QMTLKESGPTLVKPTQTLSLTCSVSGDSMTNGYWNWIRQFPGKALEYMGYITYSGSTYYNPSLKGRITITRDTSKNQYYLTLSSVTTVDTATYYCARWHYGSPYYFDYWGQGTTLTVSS VL: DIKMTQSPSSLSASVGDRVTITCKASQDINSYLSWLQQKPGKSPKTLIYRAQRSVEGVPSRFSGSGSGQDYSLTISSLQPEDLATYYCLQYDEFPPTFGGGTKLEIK', '%', 37.7),
  ('A44-hv13 (antibody, V domains shown) VH: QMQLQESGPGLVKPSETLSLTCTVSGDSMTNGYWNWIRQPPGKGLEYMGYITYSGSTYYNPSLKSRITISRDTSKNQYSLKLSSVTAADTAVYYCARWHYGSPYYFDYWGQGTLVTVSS VL: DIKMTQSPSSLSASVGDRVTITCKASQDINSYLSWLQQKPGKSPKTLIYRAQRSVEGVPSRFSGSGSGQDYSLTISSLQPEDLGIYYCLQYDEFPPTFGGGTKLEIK', '%', 61.4),
  ('A44-hv11 (antibody, V domains shown, constant regions only as pictures; also called A44V11; A44v11) VH: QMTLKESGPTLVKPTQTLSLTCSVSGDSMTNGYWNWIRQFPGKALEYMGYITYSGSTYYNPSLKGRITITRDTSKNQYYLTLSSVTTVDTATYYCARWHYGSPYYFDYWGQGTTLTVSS VL: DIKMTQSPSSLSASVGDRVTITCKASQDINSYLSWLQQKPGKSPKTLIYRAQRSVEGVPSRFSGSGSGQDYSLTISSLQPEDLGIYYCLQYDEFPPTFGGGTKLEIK', '%', 37.5);

# ---- query binder ----
[Q] What uPA-PAI-1 complex ELISA Y50% value was documented for this binder, A44-hv14 (antibody, V domains shown) VH: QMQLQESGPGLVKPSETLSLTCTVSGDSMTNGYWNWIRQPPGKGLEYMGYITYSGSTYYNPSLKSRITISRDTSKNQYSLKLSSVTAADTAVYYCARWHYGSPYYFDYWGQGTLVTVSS VL: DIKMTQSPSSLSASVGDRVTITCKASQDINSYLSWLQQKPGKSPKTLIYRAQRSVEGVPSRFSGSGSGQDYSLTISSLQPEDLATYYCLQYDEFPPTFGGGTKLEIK ?
[A] 73.9
